Test system: 276233-004-R-J1-PDC complex spheroid viability
Experiment: Anticancer human tumor 276233-004-R-J1-PDC patient-derived colon adenocarcinoma cell line growth inhibition [GQUAD]
Conditions: curve of first compound; second compound 1 µM
Text: DNA G-quadruplex Stabilizer Agents in Combinations in Complex Spheroids A high-throughput screen of multi-cell type tumor spheroids was designed to identify active combinations of DNA G-quadruplex stabilizer agents and targeted small molecules. […] Compounds. […] If the clinical Cmax for an agent had not been determined, the highest concentration tested was 10 microM. […]
pIC50: −log10 of the molar value.
Hi there, I'd appreciate the recorded pIC50 for every entry that follows.

## Task With 276233-004-R-J1-PDC complex spheroid viability as the test system, provide measured pIC50 for this compound: CCc1c2c(nc3ccc(O)cc13)-c1cc3c(c(=O)n1C2)COC(=O)[C@]3(O)CC + Cc1cnc(CNC(=O)c2c(=O)c3ccc(N4CCCN(C)CC4)nc3n3c2sc2ccccc23)cn1
## Result < 6.50

## Task Give measured pIC50 for Cc1[nH]c2ccccc2c1CCNCc1ccc(/C=C/C(=O)NO)cc1 + CN(C)c1ccc(Nc2c3ccc(NC(=O)CCN4CCCC4)cc3nc3cc(NC(=O)CCN4CCCC4)ccc23)cc1 (276233-004-R-J1-PDC complex spheroid viability).
## Result 7.32

## Task Report its pIC50 with 276233-004-R-J1-PDC complex spheroid viability as the test system: CCCS(=O)(=O)Nc1ccc(F)c(C(=O)c2c[nH]c3ncc(-c4ccc(Cl)cc4)cc23)c1F + CN(C)c1ccc(Nc2c3ccc(NC(=O)CCN4CCCC4)cc3nc3cc(NC(=O)CCN4CCCC4)ccc23)cc1
## Result < 5.00

====

system: 276233-004-R-J1-PDC complex spheroid viability; experiment: Anticancer human tumor 276233-004-R-J1-PDC cell line growth inhibition [GQUAD]; conditions: second compound 0.0316 µM; first compound 0.0316 µM; stronger effect = lower value;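 note: spheroids exposed to drugs for seven days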;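 for viability, T/C: 100% = DMSO vehicle control viability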
measurement.kind: viability, T/C (%)
Numeric answer only, unit % assumed.

## Task Enter measured viability, T/C, system 276233-004-R-J1-PDC complex spheroid viability, for the compound shown: Cc1[nH]c2ccccc2c1CCNCc1ccc(/C=C/C(=O)NO)cc1 + Cc1cnc(CNC(=O)c2c(=O)c3ccc(N4CCCN(C)CC4)nc3n3c2sc2ccccc23)cn1
## Result 82.3

## Task Provide 276233-004-R-J1-PDC complex spheroid viability viability, T/C reading for COc1ncnc(C2CC2)c1-c1ncc2cnn(Cc3ccc(-c4nc(C(F)(F)F)cn4C(C)C)cc3)c2n1 + Cc1[nH]c2ccc(F)cc2c1-c1nc2c3cccnc3c3ncccc3c2[nH]1 .
## Result 87.2

## Task Find viability, T/C for COc1cccc2c1C(=O)c1c(O)c3c(c(O)c1C2=O)CC(O)(C(=O)CO)CC3OC1CC(N)C(O)C(C)O1 (configuration not stated) + Cc1cnc(CNC(=O)c2c(=O)c3ccc(N4CCCN(C)CC4)nc3n3c2sc2ccccc23)cn1 on 276233-004-R-J1-PDC complex spheroid viability and write it down.
## Result 81.5

## Task Answer briefly: viability, T/C recorded on 276233-004-R-J1-PDC complex spheroid viability for Cc1cccc(N(C)C(=O)C2C(O)CCN2c2nc(C)cc(C(F)(F)F)c2C#N)c1 (configuration not stated) + Cc1[nH]c2ccc(F)cc2c1-c1nc2c3cccnc3c3ncccc3c2[nH]1
## Result 110

## Task Identify measured viability, T/C obtained with 276233-004-R-J1-PDC complex spheroid viability for CC1COCCN1c1cc(C2(S(C)(=N)=O)CC2)nc(-c2ccnc3[nH]ccc23)n1 (configuration not stated) + Cc1cnc(CNC(=O)c2c(=O)c3ccc(N4CCCN(C)CC4)nc3n3c2sc2ccccc23)cn1 .
## Result 99

## Task Recall the reported viability, T/C of CC1COCCN1c1cc(C2(S(C)(=N)=O)CC2)nc(-c2ccnc3[nH]ccc23)n1 (configuration not stated) + CN(C)c1ccc(Nc2c3ccc(NC(=O)CCN4CCCC4)cc3nc3cc(NC(=O)CCN4CCCC4)ccc23)cc1 on 276233-004-R-J1-PDC complex spheroid viability and write it down.
## Result 97.8

## Task Provide viability, T/C, system 276233-004-R-J1-PDC complex spheroid viability, entry CC(C)(O)C1CCC(Nc2ccc3ncc(-c4cccc(C(F)(F)F)c4)n3n2)CC1 (configuration not stated) + CN(C)c1ccc(Nc2c3ccc(NC(=O)CCN4CCCC4)cc3nc3cc(NC(=O)CCN4CCCC4)ccc23)cc1
## Result 90.4

Values from PubChem BioAssay AID2060496
